The variants listed here are annotated with their self-cleavage.
B1: CPEB3 Ribozyme (parent)
chain: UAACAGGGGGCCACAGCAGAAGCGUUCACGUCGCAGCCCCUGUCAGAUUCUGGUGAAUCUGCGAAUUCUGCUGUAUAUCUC

Variants of: B1
Experiment: self-cleavage, relative activity (ratio to wild type); higher = more cleavage; in vitro, sequencing

Answered examples (4):
UAACUGGGGGCCACAGCAGAAGCGUUCACGACGCAGCCCCUGUCAGAUUCUGGUGAAUCUGCGAAUUCUGCUGUAUAUCUC [A5U U31A]: 0.5
UAACAGGGGGCCACAGCAGAAGCGUUCACGUCGCAGCCCCUGCCAGAUUCUGGUGAAUCUGCGAAUUCUGCCGUAUAUCUC [U43C U72C]: 0.76
UAACAGGGGGCCACAGCAGAAGCGUUCACGUCGCAGCCCCGGUCAGAUUCCGGUGAAUCUGCGAAUUCUGCUGUAUAUCUC [U41G U51C]: 0.21
UAACAGGGGGCCACAGCAGAAGCGUUCAUGUCGCAGCCCCUGUCAGAUUCUGGUGAAUCAGCGAAUUCUGCUGUAUAUCUC [C29U U60A]: 0.2

// self-cleavage value for UAACAGGGGGCCACAGCAGAAGCGUUCCCGUCGCAGCCCCUGUCAGAAUCUGGUGAAUCUGCGAAUUCUGCUGUAUAUCUC [A28C U48A] : 0.37

// self-cleavage value for GAACAGGGGGCCACAGCAGAAGCGUUCACGUCGCAGCCCCUGUCAGAUUCUGGUGAAUCUGCGAAUUCUGCUGUAUAUCAC [U1G U80A] : 1.08

// self-cleavage value for UAACAGGGGGCCACAGCAGAAGCGUUCACGUCGCAGCCCCUGCCAGAUUCUGGUGAAUCUGCGAAUUCUGCUCUAUAUCUC [U43C G73C] : 1.19

// self-cleavage value for UAACAGGAGGCCACAGCAGAAGCGUUCACGUCGCAGCCCCUGCCAGAUUCUGGUGAAUCUGCGAAUUCUGCUGUAUAUCUC [G8A U43C] : 0.14

// self-cleavage value for UAACGGGGGGCCACAGCAGAAGCGUUCACGUCGCAGCCCCCGUCAGAUUCUGGUGAAUCUGCGAAUUCUGCUGUAUAUCUC [A5G U41C] : 0.5

// self-cleavage value for UAACAGUGGGCCACAGCAGAAGCGUUCACGUCGCAGCCCCUGUCAGAUUCUGGUGAAUCUGCGAAUUCUGCUUUAUAUCUC [G7U G73U] : 0.23

// self-cleavage value for UAACAGGGGGCCACAGCAGGAGCGUUCACGUCGCAGCCCCUGUCAGAUUCUGGUGAAUCUGCGAAUUCUGCUAUAUAUCUC [A20G G73A] : 1.22
